target: UniProtKB P11413; experiment: human G6PD enzyme inhibitors, dose response, selectivity assay for P. falciparum G6PD inhibitor project, biochemical, fluorescence (AID 504792); type: functional
Sequence (P11413 whole entry): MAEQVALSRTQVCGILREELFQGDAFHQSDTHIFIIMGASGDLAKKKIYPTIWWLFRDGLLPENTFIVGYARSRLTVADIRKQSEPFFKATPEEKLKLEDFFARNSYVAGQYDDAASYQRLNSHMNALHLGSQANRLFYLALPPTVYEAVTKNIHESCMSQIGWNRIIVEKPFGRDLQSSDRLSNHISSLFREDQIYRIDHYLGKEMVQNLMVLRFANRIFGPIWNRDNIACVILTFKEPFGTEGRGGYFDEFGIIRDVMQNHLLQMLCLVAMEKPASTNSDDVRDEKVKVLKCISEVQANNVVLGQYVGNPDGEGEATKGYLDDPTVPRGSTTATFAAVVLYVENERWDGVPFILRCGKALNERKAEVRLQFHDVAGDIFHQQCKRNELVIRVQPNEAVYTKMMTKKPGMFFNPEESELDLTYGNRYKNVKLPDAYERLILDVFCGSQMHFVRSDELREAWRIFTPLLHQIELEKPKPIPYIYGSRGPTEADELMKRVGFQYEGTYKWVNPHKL
The source made the active and inactive calls.
ASSAY METRIC: IC50

In: Requested field: IC50. Item: C[C@H](CO)N1C[C@H](C)[C@@H](CN(C)C(=O)Nc2ccc(C(F)(F)F)cc2)Oc2c(cccc2N(C)C)C1=O
Out: > 80 µM (inactive)

In: Next record, please: OCc1ccccc1SSc1ccccc1CO
Out: > 80 µM (inactive)

In: Next record, please: COc1cc(C(=O)O/N=C2/C=C(C)C(=O)C=C2C)cc(OC)c1OC
Out: > 80 µM (inactive)

In: Next record, please: COc1cc(N)c2ncsc2c1
Out: > 80 µM (inactive)

###

# reported CC50; entries follow
assay: HEp-2 cell cytotoxicity, dose response, cytotoxicity control for RSV inhibitor project, HTS (AID 2410); type: functional; settings: human respiratory syncytial virus
The source made the active and inactive calls.

Some compounds with known CC50 results, for comparison:
>>> print(df.to_string())
                  compound_structure_string  assay_metric        data_value
0  CCc1ccccc1S(=O)(=O)Cc1ccc(C(=O)N2CCN(c3ccccc3OC)CC2)o1          CC50  > 50 µM (active)
1  COC(=O)c1c(-c2ccc(C)cc2)csc1NC(=O)c1c(-c2ccccc2)noc1C          CC50  26.5 µM (active)
2  CN(Cc1c(F)cccc1Cl)C(=O)CCc1c[nH]c2ccccc12          CC50    30 µM (active)
3  COc1ccc(-c2nn(-c3ccccc3)cc2/C=N/NS(=O)(=O)c2ccccc2)cc1          CC50  17.8 µM (active)
4              CCCn1c2ccccc2c2nc3ccccc3nc21          CC50  > 50 µM (active)
5      COc1cc(SC)ccc1C(=O)Nc1ccc2c(c1)OCCO2          CC50  19.9 µM (active)

Moving on to another compound below.
In: Requested field: CC50. Item: CCCCCn1c(SCc2ccncc2)nc2cc(C(=O)NCc3ccco3)ccc2c1=O
Out: 48.3 µM (active)

###

system: BJ; test: cytotoxicity toward BJ-TERT fibroblasts, dose response, cell-based, RAS-independent, luminescence (AID 1933); type: functional; conditions: Homo sapiens
# reported EC50; entries follow

>>> df
                  compound_structure_string               data_value
0  COc1ccc(OC)c2sc(N(CCCN(C)C)C(=O)c3ccc(S(=O)(=O)N4CCc5ccccc5C4)cc3)nc12  0.357 µM (inconclusive)

In: Requested field: EC50. Item: CCN1C(=O)/C(=C\c2cn(-c3ccccc3)nc2-c2cccnc2)SC1=S
Out: 7.41 µM (inconclusive)

In: Next record, please: CC(C)Nc1ccc(Nc2ccnc3cc4ccccc4cc23)cc1
Out: 3.71 µM (inconclusive)

In: Next record, please: O=C(/C=C/c1cccs1)Nc1ccc(Br)cn1
Out: 0.417 µM (inconclusive)

###

# reported IC50; entries follow
Target: Type-1 angiotensin II receptor (Homo sapiens)
Sequence (P30556 whole entry): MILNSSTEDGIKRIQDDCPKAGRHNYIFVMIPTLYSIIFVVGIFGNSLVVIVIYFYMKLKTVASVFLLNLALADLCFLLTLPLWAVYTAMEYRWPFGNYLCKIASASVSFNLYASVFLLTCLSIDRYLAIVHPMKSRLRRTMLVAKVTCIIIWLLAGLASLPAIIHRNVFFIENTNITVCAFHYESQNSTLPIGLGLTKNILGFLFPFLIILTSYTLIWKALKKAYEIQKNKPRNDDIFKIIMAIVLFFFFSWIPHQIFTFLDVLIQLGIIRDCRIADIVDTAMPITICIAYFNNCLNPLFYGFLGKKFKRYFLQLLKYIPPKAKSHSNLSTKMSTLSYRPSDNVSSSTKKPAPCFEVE
Assay: AT1 receptor antagonists, dose response, selectivity assay for APJ receptor antagonist project, cell-based, uHTS hits (AID 463214);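 also: antagonist potency against angiotensin II stimulated AT1 response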
Assay type: functional
The source made the active and inactive calls.

In [3]: df
Out[3]:
                                   compound            data_value
0  Fc1ccc(NC(=S)NNc2ncc(C(F)(F)F)cc2Cl)c(F)c1      15.6 µM (active)
1  Cc1cc(C)nc(NNS(=O)(=O)c2c(F)cc(F)cc2Br)n1  22.7 µM (not active)
2        CCCOc1ccc(C(=O)NNC(=S)NC(=O)CC)cc1      7.14 µM (active)

In: Requested field: IC50. Item: Oc1c(C(c2ccccc2Cl)N2CCCC2)ccc2cccnc12 (centres undefined)
Out: 12 µM (active)
